Reported pIC50 by item:
Biological target: PI3 kinase alpha (Homo sapiens, UniProt P42336)
Sequence (P42336 whole entry): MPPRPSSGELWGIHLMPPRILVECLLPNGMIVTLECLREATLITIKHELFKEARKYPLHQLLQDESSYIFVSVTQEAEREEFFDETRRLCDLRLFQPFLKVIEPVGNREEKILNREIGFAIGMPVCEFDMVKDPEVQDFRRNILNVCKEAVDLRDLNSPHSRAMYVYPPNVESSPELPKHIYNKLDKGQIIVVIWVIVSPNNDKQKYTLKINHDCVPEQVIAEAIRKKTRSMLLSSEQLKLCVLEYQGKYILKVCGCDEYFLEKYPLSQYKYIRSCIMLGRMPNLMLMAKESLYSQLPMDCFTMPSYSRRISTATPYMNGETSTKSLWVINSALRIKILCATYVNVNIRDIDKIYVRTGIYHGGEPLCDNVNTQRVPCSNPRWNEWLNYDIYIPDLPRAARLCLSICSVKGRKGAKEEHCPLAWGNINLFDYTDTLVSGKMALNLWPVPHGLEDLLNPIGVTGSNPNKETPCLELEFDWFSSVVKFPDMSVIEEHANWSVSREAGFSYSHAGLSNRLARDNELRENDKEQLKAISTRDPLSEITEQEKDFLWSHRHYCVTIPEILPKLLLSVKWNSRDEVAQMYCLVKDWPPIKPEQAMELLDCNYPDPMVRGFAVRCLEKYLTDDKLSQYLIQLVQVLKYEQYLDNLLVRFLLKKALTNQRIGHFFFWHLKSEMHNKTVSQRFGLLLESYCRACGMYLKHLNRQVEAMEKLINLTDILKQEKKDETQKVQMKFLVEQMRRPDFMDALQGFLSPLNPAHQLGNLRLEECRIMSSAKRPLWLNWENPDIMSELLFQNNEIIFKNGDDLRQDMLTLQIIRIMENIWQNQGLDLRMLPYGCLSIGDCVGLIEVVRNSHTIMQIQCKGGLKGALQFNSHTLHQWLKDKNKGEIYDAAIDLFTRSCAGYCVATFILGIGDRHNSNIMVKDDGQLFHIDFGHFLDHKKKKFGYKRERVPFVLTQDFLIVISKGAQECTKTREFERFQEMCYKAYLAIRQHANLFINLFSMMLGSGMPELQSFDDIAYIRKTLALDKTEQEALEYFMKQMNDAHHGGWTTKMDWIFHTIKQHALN
Sequence (P27986 whole entry partner): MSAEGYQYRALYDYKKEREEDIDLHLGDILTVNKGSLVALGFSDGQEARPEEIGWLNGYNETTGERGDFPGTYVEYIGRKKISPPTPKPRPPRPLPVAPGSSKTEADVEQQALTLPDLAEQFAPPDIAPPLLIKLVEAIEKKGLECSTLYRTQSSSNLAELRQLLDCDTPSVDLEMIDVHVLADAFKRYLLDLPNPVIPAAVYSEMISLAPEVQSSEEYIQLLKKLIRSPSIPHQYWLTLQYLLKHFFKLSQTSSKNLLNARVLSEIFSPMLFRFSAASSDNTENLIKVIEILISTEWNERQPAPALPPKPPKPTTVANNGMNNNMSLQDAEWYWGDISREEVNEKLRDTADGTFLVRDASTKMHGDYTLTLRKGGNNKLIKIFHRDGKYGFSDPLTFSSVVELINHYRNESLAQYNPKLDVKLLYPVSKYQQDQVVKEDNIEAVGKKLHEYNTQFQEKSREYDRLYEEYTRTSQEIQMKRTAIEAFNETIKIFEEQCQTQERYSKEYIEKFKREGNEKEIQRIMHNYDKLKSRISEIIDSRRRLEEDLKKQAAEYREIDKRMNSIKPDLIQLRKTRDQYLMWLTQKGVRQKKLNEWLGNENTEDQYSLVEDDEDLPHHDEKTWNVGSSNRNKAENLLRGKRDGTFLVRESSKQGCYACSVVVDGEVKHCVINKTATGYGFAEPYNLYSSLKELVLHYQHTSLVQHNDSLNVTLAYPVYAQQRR
Assay: PI3K ATP depletion assay (Biological Method 1, Assay 3)
Type: biochemical
Conditions: Table 1; Biological Method 1
Procedure: Assay 3: ATP Depletion Assay Compounds to be tested are dissolved in DMSO and directly distributed into a black 384-well plate at 1.25 μL per well. To start the reaction, 25 μL of 10 nM PI3 kinase and 5 μg/mL 1-alpha-phosphatidylinositol (PI) are added into each well followed by 25 μL of 2 μM ATP. […] The stopped reaction is incubated for 5 minutes and the remaining ATP is then detected via luminescence.
pIC50: −log10 of the molar value.

CN(C)C(=O)c1cnc(N2CCOCC2)nc1-c1cnc(N)nc1 | > 5.00

Look up pIC50 of N#Cc1cnc(Nc2cc(-c3cnc(N)nc3C(F)(F)F)nc(N3CCOCC3)n2)s1 and report it.
> 6.00

Look up pIC50 of Cc1c(Nc2nc(-c3ccccc3)cs2)nc(N2CCOCC2)nc1-c1cnc(N)cc1C(F)(F)F and report it.
> 5.00

Look up pIC50 of CS(=O)(=O)Nc1cc(N)ncc1-c1cc(Nc2cnc3ccccc3c2)nc(N2CCOCC2)n1 and report it.
> 5.00

Look up pIC50 of Nc1ccc(-c2cc(NCc3cccnc3)nc(N3CCOCC3)n2)cn1 and report it.
> 5.00

Look up pIC50 of Nc1ncc(-c2cc(Nc3ccnc4c(C(F)(F)F)cccc34)nc(N3CCOCC3)n2)cn1 and report it.
> 6.00

Look up pIC50 of Nc1ccc(-c2cc(NCc3ccccn3)nc(N3CCOCC3)n2)cn1 and report it.
> 5.00

Look up pIC50 of Nc1ccc(-c2cc(-c3ccc(N4CCN(CCO)CC4)nc3)nc(N3CCOCC3)n2)cn1 and report it.
> 6.00

Entry source: patent US8563549B2
